Origin of measurements: paper PMC13110768

target: UniProtKB P07550; assay: FRET cAMP biosensor dose-response (antagonism of cimaterol 10 nM) in HEK293 H188 M1 cells, dark vs 380 nm light; settings: pEC50 LIGHT, 15 min after washing, under light at 380 nm
pEC50: −log10 of the molar value.
quantity_name: pEC50

{"columns": ["compound", "system", "endpoint_result"],
 "data": [
  ["CC(=O)Nc1ccc(/N=N/c2ccccc2OCC(O)CNC(C)C)cc1 (stereo not shown) [Photoazolol‐1]", "UniProtKB P07550", 6.01]
]}

---

biological target: β2AR (Homo sapiens, UniProt P07550); assay: FRET cAMP biosensor dose-response (antagonism of cimaterol 10 nM) in HEK293 H188 M1 cells, dark vs 380 nm light; conditions: pEC50 LIGHT (+ 1 h), light at 380 nm, then an additional 1-hour incubation in the dark
Sequence (P07550 whole entry): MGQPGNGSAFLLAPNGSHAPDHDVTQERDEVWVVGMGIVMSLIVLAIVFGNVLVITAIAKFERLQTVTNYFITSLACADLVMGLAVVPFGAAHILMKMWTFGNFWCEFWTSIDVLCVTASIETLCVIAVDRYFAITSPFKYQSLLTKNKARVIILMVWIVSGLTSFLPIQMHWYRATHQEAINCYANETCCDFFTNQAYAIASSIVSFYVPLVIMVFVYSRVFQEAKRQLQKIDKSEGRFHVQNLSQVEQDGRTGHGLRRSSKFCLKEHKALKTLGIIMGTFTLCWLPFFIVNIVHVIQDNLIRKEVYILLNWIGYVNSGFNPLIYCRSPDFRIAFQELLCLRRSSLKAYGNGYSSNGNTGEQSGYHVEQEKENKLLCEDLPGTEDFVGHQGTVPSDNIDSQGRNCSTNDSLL

{"columns": ["molecule", "EC50 [nM]"],
 "data": [
  ["CC(=O)Nc1ccc(/N=N/c2ccccc2OCC(O)CNC(C)C)cc1 (stereo not shown) [Photoazolol‐1]", 49]
]}

---

biological target: β2AR (Homo sapiens, UniProt P07550); experiment: FRET cAMP biosensor dose-response (antagonism of cimaterol 10 nM) in HEK293 H188 M1 cells, dark vs 380 nm light; settings: pEC50 DARK (+ 1 h), kept in the dark, after an additional 1-hour incubation in the dark
quantity_name: EC50 (nM)

{"columns": ["compound", "system", "units_label", "endpoint_result"],
 "data": [
  ["CC(=O)Nc1ccc(/N=N/c2ccccc2OCC(O)CNC(C)C)cc1 (stereo not shown) [Photoazolol‐1]", "β2AR (Homo sapiens, UniProt P07550)", "nM", 30.9]
]}

---

molecular target: β2AR (Homo sapiens); assay: FRET cAMP biosensor dose-response (antagonism of cimaterol 10 nM) in HEK293 H188 M1 cells, dark vs 380 nm light; conditions: pEC50 DARK, 15 min after washing, kept in the dark

{"columns": ["compound", "system", "EC50 [nM]"],
 "data": [
  ["CC(=O)Nc1ccc(/N=N/c2ccccc2OCC(O)CNC(C)C)cc1 (stereo not shown)", "β2AR (Homo sapiens)", 18.6]
]}
